Reported values of IC50 for individual entries
# target-system: A disintegrin and metalloproteinase with thrombospondin motifs 5 (Homo sapiens)

compound: O=C1NC(=S)S/C1=C/c1ccc(OCc2ccccc2)c(OCc2ccccc2)c1
IC50: 1.8 µM
//
compound: O=C1/C(=C\c2ccc(OCc3ccccc3)c(OCc3ccccc3)c2)SC(=S)N1Cc1ccccc1
IC50: > 67 µM
//
compound: O=C1NC(=S)S/C1=C/c1cc(OCc2ccccc2)cc(OCc2ccccc2)c1
IC50: 1.4 µM
//
compound: O=C1/C(=C\c2ccc(OCc3ccccc3)c(OCc3ccccc3)c2)SC(=S)N1c1ccccc1
IC50: > 67 µM
//
compound: O=C1NC(=S)S/C1=C/c1cccc(Oc2cc(Cl)cc(Cl)c2)c1
IC50: 2.5 µM
//
compound: O=C1NC(=O)/C(=C\c2cccc(Oc3ccc(Cl)cc3)c2)N1
IC50: > 67 µM
//
compound: O=C1NC(=S)S/C1=C/c1cccc(Oc2ccc(Cl)cc2)c1
IC50: 4.9 µM
//
compound: CC(C)(C)c1ccc(Oc2cccc(/C=C3/SC(=O)NC3=O)c2)cc1
IC50: 6.8 µM
//
compound: O=C(O)[C@@H](Cc1ccccc1)N1C(=O)/C(=C\c2ccc(OCc3ccccc3)c(OCc3ccccc3)c2)SC1=S
IC50: 1.3 µM
//
compound: CN1C(=O)NC(=O)/C1=C\c1cccc(Oc2ccc(Cl)cc2)c1
IC50: > 22 µM
//
compound: O=C(O)C(c1ccccc1)N1C(=O)/C(=C\c2cccc(Oc3ccc(Cl)c(Cl)c3)c2)SC1=S (stereo unspecified)
IC50: 1.3 µM

* * *

# target-system: A disintegrin and metalloproteinase with thrombospondin motifs 5 (Homo sapiens, UniProt Q9UNA0)
# Sequence (Q9UNA0 whole entry): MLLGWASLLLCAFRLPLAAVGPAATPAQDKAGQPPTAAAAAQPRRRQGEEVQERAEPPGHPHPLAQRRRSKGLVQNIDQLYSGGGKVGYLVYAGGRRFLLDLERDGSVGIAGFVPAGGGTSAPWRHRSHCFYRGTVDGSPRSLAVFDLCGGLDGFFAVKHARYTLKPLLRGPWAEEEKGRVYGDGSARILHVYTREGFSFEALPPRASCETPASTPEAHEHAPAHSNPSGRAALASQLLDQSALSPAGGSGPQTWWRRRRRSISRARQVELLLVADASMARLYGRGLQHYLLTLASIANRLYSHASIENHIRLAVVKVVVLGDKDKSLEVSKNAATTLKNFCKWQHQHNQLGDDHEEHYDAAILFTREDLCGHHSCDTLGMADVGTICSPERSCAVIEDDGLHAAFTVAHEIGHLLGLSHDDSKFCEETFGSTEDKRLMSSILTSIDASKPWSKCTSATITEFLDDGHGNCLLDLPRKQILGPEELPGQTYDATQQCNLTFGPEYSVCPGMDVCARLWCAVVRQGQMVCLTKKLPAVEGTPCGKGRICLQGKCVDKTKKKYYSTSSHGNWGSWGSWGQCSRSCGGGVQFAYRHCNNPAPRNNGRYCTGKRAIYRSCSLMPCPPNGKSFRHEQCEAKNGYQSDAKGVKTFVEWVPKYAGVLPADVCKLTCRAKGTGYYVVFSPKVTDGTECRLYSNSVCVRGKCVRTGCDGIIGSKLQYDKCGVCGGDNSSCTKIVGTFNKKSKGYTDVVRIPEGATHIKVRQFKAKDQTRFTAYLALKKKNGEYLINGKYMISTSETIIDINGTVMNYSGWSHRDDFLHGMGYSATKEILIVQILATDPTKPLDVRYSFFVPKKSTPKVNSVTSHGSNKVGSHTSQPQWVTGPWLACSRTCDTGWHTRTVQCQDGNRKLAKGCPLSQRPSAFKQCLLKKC

smiles-representation: COc1ccc(COc2ccc(/C=C3/SC(=S)NC3=O)cc2OC)cc1
display-unit: µM
result-modifier: =
IC50: 11.6
//
smiles-representation: O=C1NC(=O)/C(=C\c2cccc(Oc3cc(Cl)cc(Cl)c3)c2)N1
display-unit: µM
result-modifier: >
IC50: 67
//
smiles-representation: CC(C)[C@H](C(=O)O)N1C(=O)/C(=C\c2cccc(Oc3ccc(Cl)c(Cl)c3)c2)SC1=S
display-unit: µM
result-modifier: =
IC50: 1.8
//
smiles-representation: O=C1NC(=S)S/C1=C/c1cccc(Oc2ccccc2)c1
display-unit: µM
result-modifier: >
IC50: 22
//
smiles-representation: O=C1NC(=O)/C(=C\c2cccc(Oc3ccc(Cl)cc3)c2)S1
display-unit: µM
result-modifier: >
IC50: 22
